Species on record: Homo sapiens
Experiment: Selectivity index, ratio of Ki for recombinant human carbonic anhydrase 1 preincubated with enzyme for 15 mins by phenol red dye based stopped flow CO2 hydration assay to Ki for recombinant human carbonic anhydrase 9 preincubated with enzyme for 15 mins by phenol red dye based stopped flow CO2 hydration assay
Measured attribute: Ratio Ki

O=C(O)CNC(=O)c1ccc(NC(=O)Nc2cc3cc(Br)ccc3o2)cc1 :: 5

(I) Cc1c(NC(=O)Nc2ccc(C(=O)NCC(=O)O)cc2)oc2ccccc12
(II) O=C(Nc1cc2cc(Br)ccc2o1)Nc1ccccc1C(=O)O
Given the listed items, does I or II have the lesser reported Ratio Ki? // return label of chosen record
I
(I: 2, II: 20)

Hello, the source for this data is ChEMBL document CHEMBL4613318, in case you need it.
